Entry source: paper PMC12136037

- Test target: ~100 representative kinases (Homo sapiens, UniProt Q92630)
- Construct: Recombinant protein kinase domains with a concentration of 2 μM
- Sequence (Q92630 1-601): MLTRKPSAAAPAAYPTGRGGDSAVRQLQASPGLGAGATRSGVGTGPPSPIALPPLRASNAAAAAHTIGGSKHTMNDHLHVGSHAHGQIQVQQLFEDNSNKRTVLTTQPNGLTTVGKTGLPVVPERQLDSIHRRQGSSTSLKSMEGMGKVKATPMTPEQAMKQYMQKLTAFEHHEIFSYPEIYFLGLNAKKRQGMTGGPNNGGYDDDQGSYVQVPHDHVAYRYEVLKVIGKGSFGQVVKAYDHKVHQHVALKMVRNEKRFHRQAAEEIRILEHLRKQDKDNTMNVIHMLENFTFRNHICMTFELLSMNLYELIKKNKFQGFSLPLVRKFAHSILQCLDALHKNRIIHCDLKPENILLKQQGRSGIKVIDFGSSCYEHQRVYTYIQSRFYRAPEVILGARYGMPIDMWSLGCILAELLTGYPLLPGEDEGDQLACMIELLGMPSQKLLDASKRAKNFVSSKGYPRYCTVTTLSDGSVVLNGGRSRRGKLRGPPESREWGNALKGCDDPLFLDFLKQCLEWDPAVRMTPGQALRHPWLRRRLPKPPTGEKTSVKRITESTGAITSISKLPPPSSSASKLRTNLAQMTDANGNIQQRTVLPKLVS
- Protocol: DSF 100 kinase selectivity screen;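 also: compound tested at 20 µM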
- Assay type: binding
- Experimental parameters: Protein DYRK2; average of three replicates
Experimental readout: dTm (K)

>>> meas_value("COc1ccc(NC(=O)C2(C(=O)Nc3cccc(-c4c[nH]c5ncnc(N6CCOCC6)c45)c3)CC2)cc1 [Compound 16]")
3.09
>>> meas_value("COc1cc(NC(=O)C2(C(=O)Nc3cccc(-c4c[nH]c5ncnc(N6CCOCC6)c45)c3)CC2)ccc1F [Compound 21]")
8.53
>>> meas_value("O=C(Nc1cccc(-c2c[nH]c3ncnc(N4CCOCC4)c23)c1)C1(C(=O)Nc2ccc(F)c(F)c2)CC1 [Compound 17]")
7.75
>>> meas_value("O=C(Nc1ccccc1)C1(C(=O)Nc2cccc(-c3c[nH]c4ncnc(N5CCOCC5)c34)c2)CC1 [Compound 12]")
6.15
>>> meas_value("COc1cc2c(Oc3ccc(NC(=O)C4(C(=O)Nc5ccc(F)cc5)CC4)cc3F)ccnc2cc1OCCCN1CCOCC1 [Foretinib, reference compound]")
4.19
>>> meas_value("CCNc1nc(Nc2cc(F)c(C(=O)N3CCOCC3)cc2OC)ncc1C(F)(F)F [GNE-7915]")
4.85
